experiment.notes: Photosensitizer-mediated PDT, in vitro proliferation (MTT), huh-7
Assay type: cell-based, human
applied.conditions: human, huh-7 cells, 2 μg/mL, no light, read-out: cell viability (%)
property: viability at 24 h, 2 μg/mL (%)
# output: bare number, implied unit %

**Query** Fill in: viability at 24 h, 2 μg/mL of C=Cc1c(C)c2cc3nc(c(CC(=O)O)c4[nH]c(cc5nc(cc1[nH]2)C(C)=C5CC)c(C)c4C(=O)O)[C@@H](CCC(=O)O)[C@@H]3C [Ce6, reference compound] is ___
**Result** 94
